Exercise: state measured IC50 for each of the compounds provided.
# Tested on: 5637
# Assay name: Cytotoxicity against human 5637 cells after 96 hrs by crystal violet staining
# Format: functional, cell-based
# Condition context: Homo sapiens, 5637, 96 h
Write it as a number; the unit µM goes unstated.

What value of IC50 has been recorded for this entry: `C=CCN1C[C@@H]2/C(=C\c3ccccc3)CC[C@H]1CN2Cc1ccc(OC)cc1`
9.92

What value of IC50 has been recorded for this entry: `C=CCN1C[C@@H]2[C@@H](Oc3ccccc3)CC[C@H]1CN2Cc1ccc(OC)cc1`
15.7

What value of IC50 has been recorded for this entry: `C=CCN1C[C@H]2/C(=C\c3ccccc3)CC[C@@H]1CN2Cc1ccc(OC)cc1`
10.9

What value of IC50 has been recorded for this entry: `C=CCN1C[C@@H]2[C@@H](Oc3ccccc3)CC[C@H]1CN2Cc1ccc(OC)cc1OC`
14

What value of IC50 has been recorded for this entry: `C=CCN1C[C@H]2[C@H](OCc3ccccc3)CC[C@@H]1CN2Cc1ccc(OC)cc1OC`
5.12

What value of IC50 has been recorded for this entry: `C=CCN1C[C@H]2[C@@H](Oc3ccccc3)CC[C@@H]1CN2Cc1ccc(OC)cc1OC`
15.2

What value of IC50 has been recorded for this entry: `C=CCN1C[C@H]2c3[nH]c4ccc(OC)cc4c3C[C@@H]1CN2Cc1ccc(OC)cc1OC`
16.6

What value of IC50 has been recorded for this entry: `C=CCN1C[C@H]2/C(=C\c3ccccc3)CC[C@@H]1CN2Cc1ccc(OC)cc1OC`
6.22

What value of IC50 has been recorded for this entry: `C=CCN1C[C@@H]2/C(=C\c3ccccc3)CC[C@H]1CN2Cc1ccc(OC)cc1OC`
5.13

What value of IC50 has been recorded for this entry: `C=CCN1C[C@@H]2c3[nH]c4ccc(OC)cc4c3C[C@H]1CN2Cc1ccc(OC)cc1`
10.8

What value of IC50 has been recorded for this entry: `C=CCN1C[C@@H]2[C@H](OCc3ccccc3)CC[C@H]1CN2Cc1ccc(OC)cc1OC`
4.73

What value of IC50 has been recorded for this entry: CN(Cc1cnc2nc(N)nc(N)c2n1)c1ccc(C(=O)N[C@@H](CCC(=O)O)C(=O)O)cc1 [METHOTREXATE]
0.016

What value of IC50 has been recorded for this entry: `C=CCN1C[C@H]2c3nc4ccccc4c(C)c3C[C@@H]1CN2Cc1ccc(OC)cc1OC`
14

What value of IC50 has been recorded for this entry: `C=CCN1C[C@@H]2[C@@H](OCc3ccccc3)CC[C@H]1CN2Cc1ccc(OC)cc1`
6.22

What value of IC50 has been recorded for this entry: `C=CCN1C[C@H]2[C@H](Oc3ccccc3)CC[C@@H]1CN2Cc1ccc(OC)cc1OC`
16.3

What value of IC50 has been recorded for this entry: `C=CCN1C[C@@H]2[C@H](Oc3ccccc3)CC[C@H]1CN2Cc1ccc(OC)cc1`
14

What value of IC50 has been recorded for this entry: `C=CCN1C[C@@H]2c3nc4ccccc4c(C)c3C[C@H]1CN2Cc1ccc(OC)cc1`
13.8

What value of IC50 has been recorded for this entry: `C=CCN1C[C@H]2c3[nH]c4ccc(OC)cc4c3C[C@@H]1CN2Cc1ccc(OC)cc1`
16.1

What value of IC50 has been recorded for this entry: `C=CCN1C[C@@H]2c3[nH]c4ccccc4c3C[C@H]1CN2Cc1ccc(OC)cc1`
11.2

What value of IC50 has been recorded for this entry: `COc1ccc(CN2C[C@@H]3[C@H](c4ccccc4)CC(=O)[C@H]2CN3Cc2ccccc2)cc1`
18.3

What value of IC50 has been recorded for this entry: `C=CCN1C[C@@H]2[C@@H](OCc3ccccc3)CC[C@H]1CN2Cc1ccc(OC)cc1OC`
5.25

What value of IC50 has been recorded for this entry: `C=CCN1C[C@@H]2[C@H](OCc3ccccc3)CC[C@H]1CN2Cc1ccc(OC)cc1`
6.53

What value of IC50 has been recorded for this entry: `C=CCN1C[C@H]2c3[nH]c4ccccc4c3C[C@@H]1CN2Cc1ccc(OC)cc1OC`
12.5

What value of IC50 has been recorded for this entry: `C=CCN1C[C@H]2[C@@H](OCc3ccccc3)CC[C@@H]1CN2Cc1ccc(OC)cc1OC`
7.66

What value of IC50 has been recorded for this entry: `C=CCN1C[C@@H]2c3[nH]c4ccc(OC)cc4c3C[C@H]1CN2Cc1ccc(OC)cc1OC`
11.7

What value of IC50 has been recorded for this entry: `C=CCN1C[C@@H]2[C@H](Oc3ccccc3)CC[C@H]1CN2Cc1ccc(OC)cc1OC`
11.7

What value of IC50 has been recorded for this entry: `C=CCN1C[C@H]2[C@H](Oc3ccccc3)CC[C@@H]1CN2Cc1ccc(OC)cc1`
14.1

What value of IC50 has been recorded for this entry: `C=CCN1C[C@H]2[C@H](OCc3ccccc3)CC[C@@H]1CN2Cc1ccc(OC)cc1`
11.2

What value of IC50 has been recorded for this entry: COc1ccc(CN2C[C@H]3C(c4ccccc4)CC(=O)[C@@H]2CN3Cc2ccccc2)cc1 (single isomer, unassigned; form 2)
10.4

What value of IC50 has been recorded for this entry: `C=CCN1C[C@H]2[C@@H](Oc3ccccc3)CC[C@@H]1CN2Cc1ccc(OC)cc1`
9.79

What value of IC50 has been recorded for this entry: `C=CCN1C[C@H]2[C@@H](OCc3ccccc3)CC[C@@H]1CN2Cc1ccc(OC)cc1`
12.7

Reference for the values: ChEMBL document CHEMBL1153319
